The reader will find reported concentration all E values listed item by item below.
# PROTOCOL_DESCRIPTION: Stability of pure lycopene isomers in n-hexane during storage at room temperature
# Format: physicochemical
# CONDITION_CONTEXT: n-hexane, room temperature, absence of light, 33 days
# Description: Pure 5-Z, 9-Z, 13-Z and all-E lycopene were isolated from isomerised tomato oleoresin (submitted to 1 hour heating), by collecting the fractions containing the corresponding peaks after HPLC separation (see below the experimental conditions). […] Amount of total lycopene was determined by reverse phase HPLC on a C18 precolumn (ODS Hypersil, 5 μm, 20×4 mm; Hewlett Packard, Geneva, Switzerland) and a C18 column (Nova pak, 3.9 μm i.d.×300 mm length, Millipore, Volketswil, Switzerland). […]

Before answering, review these 3 worked examples.
CC(C)=CCC/C(C)=C/C=C/C(C)=C\C=C\C(C)=C\C=C\C=C(C)\C=C\C=C(C)\C=C\C=C(/C)CCC=C(C)C | 9.8 % of total isomers
CC(C)=CCC/C(C)=C/C=C/C(C)=C/C=C/C(C)=C/C=C/C=C(C)/C=C/C=C(C)/C=C/C=C(\C)CCC=C(C)C | 58.7 % of total isomers
CC(C)=CCC/C(C)=C/C=C/C(C)=C/C=C/C(C)=C\C=C\C=C(C)\C=C\C=C(C)\C=C\C=C(/C)CCC=C(C)C | 57.0 % of total isomers

Quick note, concentration all E for `CC(C)=CCC\C(C)=C/C=C/C(C)=C/C=C/C(C)=C/C=C/C=C(C)/C=C/C=C(C)/C=C/C=C(\C)CCC=C(C)C` landed at 10.7 % of total isomers

Source: patent US9125430B2
